Target: T1, human BCMA on BCMA expressing cell lines (human, UniProt Q02223 1-184)
T1 sequence: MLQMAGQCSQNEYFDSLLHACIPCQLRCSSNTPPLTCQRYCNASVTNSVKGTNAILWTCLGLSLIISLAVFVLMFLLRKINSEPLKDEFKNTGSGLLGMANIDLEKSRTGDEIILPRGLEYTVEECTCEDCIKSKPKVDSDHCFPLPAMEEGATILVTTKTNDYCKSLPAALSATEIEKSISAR
Assay: cell-based or functional assay
metric: TDCC Jeko1 EC50 (pM)
Give bare numbers, in pM.

binder	TDCC Jeko1 EC50, pM
01F07-M34G TriTAC (other, not shown: large carriers; small tags and cut ends, trispecific; also called 01F01-M34G) VHH: EVQLVESGGGLVQPGRSLTLSCAASTNIFSTSPGGWYRQAPGKQRELVAAIHGFSTIYADSVKGRFTISRDNAKNSIYLQMNSLRPEDTALYYCNKVPWGDYHPGNVYWGQGTQVTVSS	9
02G02-M34Y TriTAC (other, not shown: large carriers; small tags and cut ends, trispecific) VHH: EVQLVESGGGLVQPGRSLTLSCAASTNIFSITPYGWYRQAPGKQRELVAAIHGASTLYADSVKGRFTISRDNAKNSIYLQMNSLRPEDTALYYCNKVPWGDYHPGNVYWGQGTQVTVSS	11
BCMA targeting trispecific protein 02F02 (other, trispecific; also called 02F02 TriTAC; not shown: The C-terminal 6xHis tag is left out because it follows these missing domains) VHH: EVQLVESGGGLVQPGRSLTLSCAASTNIFSKSPMGWYRQAPGKQRELVAAIHGSSTLYADSVKGRFTISRDNAKNSIYLQMNSLRPEDTALYYCNKVPWGDYHPGNVYWGQGTQVTVSS	8.2
BCMA targeting trispecific protein 02E06 (other, not shown: large carriers; small tags and cut ends, trispecific; also called 02E06 TriTAC) VHH: EVQLVESGGGLVQPGRSLTLSCAASTNIFSDSPMGWYRQAPGKQRELVAAIHGFSTFYADSVKGRFTISRDNAKNSIYLQMNSLRPEDTALYYCNKVPWGDYHPGNVYWGQGTQVTVSS	9.1
BCMA targeting trispecific protein 02G02 (other, trispecific; also called 02G02 TriTAC; not shown: anti-albumin domain, anti-CD3 domain and the linkers of the trispecific (TriTAC) format) VHH: EVQLVESGGGLVQPGRSLTLSCAASTNIFSITPMGWYRQAPGKQRELVAAIHGASTLYADSVKGRFTISRDNAKNSIYLQMNSLRPEDTALYYCNKVPWGDYHPGNVYWGQGTQVTVSS	11
BCMA targeting trispecific protein 02E05 (other, trispecific; also called 02E05 TriTAC; not shown: the C-terminal 6xHis tag follows those domains and is left out) VHH: EVQLVESGGGLVQPGRSLTLSCAASTNIFSRSPMGWYRQAPGKQRELVAAIHGISTLYADSVKGRFTISRDNAKNSIYLQMNSLRPEDTALYYCNKVPWGDYHPGNVYWGQGTQVTVSS	11

Name the recorded TDCC Jeko1 EC50 for BCMA targeting trispecific protein 02B06 (other, not shown: large carriers; small tags and cut ends, trispecific; also called 02B06 TriTAC) VHH: EVQLVESGGGLVQPGRSLTLSCAASTNIFSNSPMGWYRQAPGKQRELVAAIHGFSTLYADSVKGRFTISRDNAKNSIYLQMNSLRPEDTALYYCNKVPWGDYHPGNVYWGQGTQVTVSS .
11
